System: iPLA2β (Cricetulus griseus)
Sequence (A0A3L7I2I8 1-752 isoform A0A3L7I2I8-2): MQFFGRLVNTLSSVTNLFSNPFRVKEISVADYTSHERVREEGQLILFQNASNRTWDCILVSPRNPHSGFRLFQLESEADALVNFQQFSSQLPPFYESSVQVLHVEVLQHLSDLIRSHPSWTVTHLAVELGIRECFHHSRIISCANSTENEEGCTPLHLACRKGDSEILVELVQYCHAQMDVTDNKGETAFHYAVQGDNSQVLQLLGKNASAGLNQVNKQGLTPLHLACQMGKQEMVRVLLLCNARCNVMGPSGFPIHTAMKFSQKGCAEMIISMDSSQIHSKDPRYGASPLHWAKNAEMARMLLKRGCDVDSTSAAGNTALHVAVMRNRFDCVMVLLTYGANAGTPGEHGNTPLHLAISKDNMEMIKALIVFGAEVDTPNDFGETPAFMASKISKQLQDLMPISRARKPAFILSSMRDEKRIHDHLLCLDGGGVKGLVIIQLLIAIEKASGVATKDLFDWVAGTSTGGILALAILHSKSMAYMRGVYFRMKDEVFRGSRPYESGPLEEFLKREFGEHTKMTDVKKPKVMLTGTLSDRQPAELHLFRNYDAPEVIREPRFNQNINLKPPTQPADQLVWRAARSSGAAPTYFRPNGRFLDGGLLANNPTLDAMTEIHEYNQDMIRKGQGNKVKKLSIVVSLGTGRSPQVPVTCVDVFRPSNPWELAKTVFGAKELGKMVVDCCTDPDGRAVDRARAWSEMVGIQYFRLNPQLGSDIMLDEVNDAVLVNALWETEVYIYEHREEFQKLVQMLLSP
Assay Metric: pIC50
To interpret pIC50, take it as minus log10 of a concentration measured in moles per litre.

Prompt: What does the data say about its pIC50? Entry: O=C1O/C(=C/Br)CC[C@@H]1c1cccc2ccccc12 [(R)-BEL]
Completion: 6.10
